Target: NAMPT enzyme (Homo sapiens (Human), UniProt P43490)
Sequence (P43490 whole entry, species assumed): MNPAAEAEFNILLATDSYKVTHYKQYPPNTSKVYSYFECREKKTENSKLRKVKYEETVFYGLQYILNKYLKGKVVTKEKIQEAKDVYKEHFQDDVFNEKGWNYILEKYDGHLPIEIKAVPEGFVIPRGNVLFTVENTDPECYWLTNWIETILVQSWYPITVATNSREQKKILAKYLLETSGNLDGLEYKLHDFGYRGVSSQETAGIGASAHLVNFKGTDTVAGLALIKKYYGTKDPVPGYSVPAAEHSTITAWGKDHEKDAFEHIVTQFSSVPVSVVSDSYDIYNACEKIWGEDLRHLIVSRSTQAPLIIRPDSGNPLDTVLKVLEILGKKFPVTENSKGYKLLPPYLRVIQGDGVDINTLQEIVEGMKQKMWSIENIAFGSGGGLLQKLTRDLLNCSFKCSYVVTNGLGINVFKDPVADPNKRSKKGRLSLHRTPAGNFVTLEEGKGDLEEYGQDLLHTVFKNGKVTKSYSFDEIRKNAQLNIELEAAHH
Assay: Enzyme Assay and NMN Detection (NAMPT reaction, fluorescence detection of NMN)
Assay type: biochemical
Details: Table B-4; NAMPT activation, NMN formation
Procedure: NAMPT reaction was performed in 50 mM HEPES, pH 7.5, containing 5 mM MgCl2, 0.1% Prionex, 0.005% Tween 20, and 1 mM TCEP at room temperature in Greiner 384-well black polypropylene plates. […] The fluorescence (ex380/em460) was measured following another short incubation and 30 min incubation. The increased concentration of NMN was determined from a calibration curve obtained at the time of experiment.
pEC50: −log10 of the molar value.
compounds and their reported pEC50

* O=C(NCc1cn[nH]c1)Nc1ccc(S(=O)(=O)c2cn[nH]c2)cc1 | 5.70 to 7.00

Ask | Which value of pEC50 has been reported for O=C(NCc1cn[nH]c1)Nc1ccc(S(=O)(=O)c2cccc(OC(F)(F)F)c2)cc1 in the records?
Reply | > 7.00

Ask | Which value of pEC50 has been reported for O=C(NCc1cn[nH]c1)Nc1ccc(S(=O)(=O)c2ccccn2)cc1 in the records?
Reply | 5.70 to 7.00

Ask | Which value of pEC50 has been reported for O=C(NCc1cn[nH]c1)Nc1ccc(Nc2nc3ccccc3s2)cc1 in the records?
Reply | < 4.70

Ask | Which value of pEC50 has been reported for Cc1ccc2c(-c3ccc(NC(=O)NCc4cn[nH]c4)cc3)nn(C)c2c1 in the records?
Reply | 5.70 to 7.00

Ask | Which value of pEC50 has been reported for O=C(NCc1cn[nH]c1)Nc1ccc(S(=O)(=O)c2cncnc2)cc1 in the records?
Reply | 5.70 to 7.00

Ask | Which value of pEC50 has been reported for Cc1ccc(S(=O)(=O)c2ccc(NC(=O)NCc3cn[nH]c3)cc2)nc1 in the records?
Reply | 5.70 to 7.00

Ask | Which value of pEC50 has been reported for COc1ccc(-c2ccccc2S(=O)(=O)c2ccc(NC(=O)NCc3cn[nH]c3)cc2)cc1 in the records?
Reply | 4.70 to 5.30

Ask | Which value of pEC50 has been reported for O=C(NCc1cn[nH]c1)Nc1ccc(Nc2nc(-c3ccccc3)cs2)cc1 in the records?
Reply | 5.70 to 7.00

Ask | Which value of pEC50 has been reported for O=C(NCc1cn[nH]c1)Nc1ccc(S(=O)(=O)C2CCCCC2)cc1 in the records?
Reply | 5.70 to 7.00

----------
Biological target: NAMPT enzyme (Homo sapiens (Human), UniProt P43490)
Test: Enzyme Assay and NMN Detection (NAMPT reaction, fluorescence detection of NMN)
Assay type: biochemical
Settings: Table B-2; NAMPT activation, NMN formation
compounds and their reported EC50

Below: 3 compounds and their reported EC50.
* O=C(NCc1ccncc1)Nc1ccc(S(=O)(=O)NCc2ccncc2)cc1 | 100 to 2000 nM
* Cc1ccc(NC(=O)c2ccc(NC(=O)NCc3ccncc3)cc2)cc1C | 100 to 2000 nM
* O=C(NCc1ccncc1)Nc1ccc(S(=O)(=O)Nc2ncccn2)cc1 | 5000 to 20000 nM

Ask | Which value of EC50 has been reported for O=C(NCc1ccncc1)Nc1ccc(C(=O)Nc2cccc(OC(F)(F)F)c2)cc1 in the records?
Reply | 2000 to 5000 nM

Ask | Which value of EC50 has been reported for CN(Cc1ccccc1OC(F)(F)F)S(=O)(=O)c1ccc(NC(=O)NCc2ccncc2)cc1 in the records?
Reply | < 100 nM

Ask | Which value of EC50 has been reported for O=C(NCc1ccncc1)Nc1ccc(S(=O)(=O)NCc2cccc(Cl)c2)cc1 in the records?
Reply | 100 to 2000 nM

Ask | Which value of EC50 has been reported for COc1ccc(S(=O)(=O)c2ccc(NC(=O)NCc3ccncc3)cc2)cc1 in the records?
Reply | 100 to 2000 nM

Ask | Which value of EC50 has been reported for COc1ccc(S(=O)(=O)Nc2ccc(NC(=O)NCc3ccncc3)cc2)cc1 in the records?
Reply | 100 to 2000 nM

Ask | Which value of EC50 has been reported for CC(C)(C)NS(=O)(=O)c1ccc(NC(=O)NCc2ccncc2)cc1 in the records?
Reply | 100 to 2000 nM

Ask | Which value of EC50 has been reported for Cc1ccc(CNS(=O)(=O)c2ccc(NC(=O)NCc3ccncc3)cc2)cc1 in the records?
Reply | 100 to 2000 nM

Ask | Which value of EC50 has been reported for CN(C)c1ccccc1CNS(=O)(=O)c1ccc(NC(=O)NCc2ccncc2)cc1 in the records?
Reply | < 100 nM

Ask | Which value of EC50 has been reported for COc1ccc(NC(=O)NCc2ccncc2)cc1 in the records?
Reply | > 20000 nM

Ask | Which value of EC50 has been reported for O=C(NCc1ccncc1)Nc1ccc(S(=O)(=O)N2Cc3ccccc3C2)cc1 in the records?
Reply | 100 to 2000 nM

Ask | Which value of EC50 has been reported for O=C(NCc1ccncc1)Nc1ccc(S(=O)(=O)Cc2ccccc2)cc1 in the records?
Reply | 2000 to 5000 nM

Ask | Which value of EC50 has been reported for COC(=O)c1ccccc1CNS(=O)(=O)c1ccc(NC(=O)NCc2ccncc2)cc1 in the records?
Reply | < 100 nM

Ask | Which value of EC50 has been reported for O=C(NCc1ccncc1)Nc1ccc(S(=O)(=O)N2CCCCC2)cc1 in the records?
Reply | 100 to 2000 nM

Ask | Which value of EC50 has been reported for O=C(NCc1ccncc1)Nc1ccc(C(=O)O)cc1 in the records?
Reply | > 20000 nM
